These data points were gathered from patent US20250042997A1.

Molecular target: human Siglec-8 (full-length, on transfected CHO or 293 cells, or native on human eosinophils) (human, UniProt Q9NYZ4 17-499)
Sequence (Q9NYZ4 17-499): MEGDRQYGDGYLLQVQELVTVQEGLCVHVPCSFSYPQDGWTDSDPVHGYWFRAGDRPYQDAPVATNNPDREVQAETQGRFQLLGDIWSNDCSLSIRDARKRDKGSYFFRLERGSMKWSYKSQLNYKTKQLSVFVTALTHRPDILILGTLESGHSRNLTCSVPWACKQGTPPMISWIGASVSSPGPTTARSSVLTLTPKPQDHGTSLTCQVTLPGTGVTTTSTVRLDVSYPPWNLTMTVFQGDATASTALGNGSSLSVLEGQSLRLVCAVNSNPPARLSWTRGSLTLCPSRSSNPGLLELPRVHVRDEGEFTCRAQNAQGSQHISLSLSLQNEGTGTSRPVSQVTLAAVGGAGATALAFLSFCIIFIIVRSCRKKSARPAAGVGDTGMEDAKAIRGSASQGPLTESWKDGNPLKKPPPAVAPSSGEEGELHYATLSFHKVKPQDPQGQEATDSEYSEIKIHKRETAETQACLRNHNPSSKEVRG
Test: flow cytometry on 293 cells transiently transfected with full-length human Siglec-8; A647 anti-human Fc-gamma secondary; median fluorescence, nonlinear fit; table under the graph (Kd column without unit, concentration axis nM Ab)
Experimental: The binding of the lmG2 and humanized versions (further including Siglec8 hzG2v14), formatted as monomeric VHH-hIgG1 fusions proteins using a non-dimerizing human IgG1 Fe variant region lacking a hinge Fe NNT, was assessed by flow cytometry using 293 cells that had been transiently transfected with full-length human Siglec-8 and detected with an anti-human AF647 secondary antibody. Binding specificity was assessed using untransfected 293 cells as a control. […]
Recorded Kd, one value per entry.
Give the number; nM is assumed, so skip it.

Siglec8 hzG2v29, monomeric VHH-hIgG1 fusion (Fc NNT) (Fc fusion, Monomeric format; not shown: non-dimerizing human IgG1 Fc variant lacking a hinge (Fc NNT)) EVQLLESGGGEVRPGGSLRLSCAASGSISIFSMYVVAWYRQAPGKQREWVAFIQRGGTANYAESAKGRFTISRDNAKNTVYLQMSSLRAEDTAVYYCNYINSDNEIGGPWGQGTLVTVKP; 0.111

Query :: What does the record list as Kd for llama anti-Siglec8-G2 VHH (lmG2), monomeric VHH-hIgG1 fusion (Fc NNT) (Fc fusion, Monomeric format; also called parental clone; not shown: non-dimerizing human IgG1 Fc variant lacking a hinge (Fc NNT)) QVTLKESGGGLVRTGGSLRLSCAASGSISIFSMYVVAWYRQAPGKQREWVAFIQRGGTANYADSAKGRFTISRDNAKNTVYLQMASLKPDDTAVYYCNYINSDNEIGGPWGQGTQVTVKP ?
Result :: 0.0637

Query :: Now the same for Siglec8 hzG2v33, monomeric VHH-hIgG1 fusion (Fc NNT) (Fc fusion, Monomeric format; not shown: non-dimerizing human IgG1 Fc variant lacking a hinge (Fc NNT)) EVQLLESGGGEVQTGGSLRLSCAASGSISIFSMYVVAWYRQAPGKQREWVAFIQRGGTANYAESAKGRFTISRDNAKNTVYLQMSSLRADDTAVYYCNYINSDNEIGGPWGQGTLVTVKP
Result :: 0.0979

Query :: Also, Siglec8 hzG2v32, monomeric VHH-hIgG1 fusion (Fc NNT) (Fc fusion, Monomeric format; not shown: non-dimerizing human IgG1 Fc variant lacking a hinge (Fc NNT)) EVQLLESGGGEVQTGGSLRLSCAASGSISIFSMYVVAWYRQAPGKQREWVAFIQRGGTANYAESAKGRFTISRDNAKNTVYLQMSSLRPEDTAVYYCNYINSDNEIGGPWGQGTLVTVKP please.
Result :: 0.0643

Query :: Another: Siglec8 hzG2v28, monomeric VHH-hIgG1 fusion (Fc NNT) (Fc fusion, Monomeric format; not shown: non-dimerizing human IgG1 Fc variant lacking a hinge (Fc NNT)) EVQLLESGGGEVQTGGSLRLSCAASGSISIFSMYVVAWYRQAPGKQREWVAFIQRGGTANYAESAKGRFTISRDNAKNTVYLQMSSLRAEDTAVYYCNYINSDNEIGGPWGQGTLVTVKP
Result :: 0.0966

Query :: Record: Siglec8 hzG2v30, monomeric VHH-hIgG1 fusion (Fc NNT) (Fc fusion, Monomeric format; not shown: non-dimerizing human IgG1 Fc variant lacking a hinge (Fc NNT)) EVQLLESGGGLVRTGGSLRLSCAASGSISIFSMYVVAWYRQAPGKQREWVAFIQRGGTANYAESAKGRFTISRDNAKNTVYLQMSSLRAEDTAVYYCNYINSDNEIGGPWGQGTLVTVKP
Result :: 0.124
